- measurement-description: Half life in human liver microsomes in presence of NADPH by LC-MS analysis
- Assay type: ADME, Microsome
Each item that follows carries a reported half-life.
endpoint-label: half-life (h)

compound=CC1CCN(Cc2ccc3nc(NC(=O)NN=C(c4ccccn4)c4ccccn4)sc3c2)CC1 recorded_value=1.32
compound=C/C(=N\NC(=O)Nc1nc2ccc(CN3CCC(C)CC3)cc2s1)c1ccccn1 recorded_value=1.3
compound="O=C(c1ccc(F)cc1)C1CCN(CCn2c(=O)[nH]c3ccccc3c2=O)CC1 [KETANSERIN]" recorded_value=0.601

----------
Each item that follows carries a reported half-life.
- measurement-description: Half life in rat liver microsomes in presence of NADPH by LC-MS analysis
- Assay type: ADME, Microsome
endpoint-label: half-life (h)

mol_smiles=CC1CCN(Cc2ccc3nc(NC(=O)NN=C(c4ccccn4)c4ccccn4)sc3c2)CC1 recorded_value=1.23
mol_smiles=O=C(c1ccc(F)cc1)C1CCN(CCn2c(=O)[nH]c3ccccc3c2=O)CC1 recorded_value=0.24
mol_smiles=C/C(=N\NC(=O)Nc1nc2ccc(CN3CCC(C)CC3)cc2s1)c1ccccn1 recorded_value=1.59

----------
Each item that follows carries a reported IC50.
- Tested on: U-937
- measurement-description: Antiproliferative activity against human procaspase-3 over-expressing U937 cells after 24 hrs by CCK-8 assay
- Type: functional, cell-based
- test-context: U-937, 24 h
endpoint-label: IC50 (µM)

mol_smiles=CC1CCN(Cc2ccc(NC(=O)N/N=C/c3ccccn3)cc2)CC1 endpoint_label=IC50 relation_sign=> recorded_value=40
mol_smiles=C/C(=N\NC(=O)Nc1ccc(CN2CCC(C)CC2)cc1)c1ccccn1 endpoint_label=IC50 relation_sign=> recorded_value=40
mol_smiles=CC1CCN(Cc2ccc3nc(NC(=O)N/N=C/c4ccccn4)sc3c2)CC1 endpoint_label=IC50 relation_sign== recorded_value=21.5
mol_smiles=C/C(=N\NC(=O)Nc1nc2ccc(CN(C)C)cc2s1)c1cnccn1 endpoint_label=IC50 relation_sign=> recorded_value=40
mol_smiles=CN(C)Cc1ccc(NC(=O)NN=C(c2ccccn2)c2ccccn2)cc1 endpoint_label=IC50 relation_sign=> recorded_value=40
mol_smiles=CN(C)Cc1ccc2nc(NC(=O)NN=C(c3ccccn3)c3ccccn3)sc2c1 endpoint_label=IC50 relation_sign== recorded_value=7.8
mol_smiles=CCN(CC)Cc1ccc2nc(NC(=O)N/N=C(\C)c3ccccn3)sc2c1 endpoint_label=IC50 relation_sign== recorded_value=15.6
mol_smiles=CC1CCN(Cc2ccc(NC(=O)NN=C(c3ccccn3)c3ccccn3)cc2)CC1 endpoint_label=IC50 relation_sign=> recorded_value=40
mol_smiles=CN(C)Cc1ccc(NC(=O)NN=C(c2ccccc2)c2ccccc2)cc1 endpoint_label=IC50 relation_sign=> recorded_value=25
mol_smiles=CCN(CC)Cc1ccc(NC(=O)NN=C(c2ccccc2)c2ccccc2)cc1 endpoint_label=IC50 relation_sign=> recorded_value=25
mol_smiles=CCN(CC)Cc1ccc(NC(=O)N/N=C(\C)c2ccccn2)cc1 endpoint_label=IC50 relation_sign=> recorded_value=40
mol_smiles=CCN(CC)Cc1ccc2nc(NC(=O)N/N=C(\C)c3cnccn3)sc2c1 endpoint_label=IC50 relation_sign=> recorded_value=40
mol_smiles=C=CCc1cccc(/C=N/NC(=O)CN2CCN(Cc3ccccc3)CC2)c1O endpoint_label=IC50 relation_sign== recorded_value=6
mol_smiles=CCN(CC)Cc1ccc2nc(NC(=O)N/N=C/c3ccccn3)sc2c1 endpoint_label=IC50 relation_sign== recorded_value=24.8
mol_smiles=CCN(CC)Cc1ccc2nc(NC(=O)NN=C(c3ccccn3)c3ccccn3)sc2c1 endpoint_label=IC50 relation_sign== recorded_value=9.1
mol_smiles=C/C(=N\NC(=O)Nc1nc2ccc(CN3CCC(C)CC3)cc2s1)c1ccccn1 endpoint_label=IC50 relation_sign== recorded_value=5.2
